Reported Percent Effect values for the following molecules.
system: Wolbachia pipientis; experiment: Anti-Wolbachia Cell-Based Screen; format: functional; parameters: scale not given: in the data most compounds retested in dose-response had high values; conditions: 5 µM
Out of some 48,000 compounds screened, about 13,000 (27%) showed an effect of 50% or more. The list shows a part of the results.
Hi! Could you send only the number? It should be in %, unit omitted.

Some solved cases for reference:
Cc1csc(C(Cc2ccsc2)NC(=O)c2cc(=O)n(C)c(=O)n2C)n1 (stereo unspecified)	142.4
Cc1cnccc1NC(=O)CCc1ccsc1	-8.034

(Q) Answer with the recorded Percent Effect for the molecule listed here: Cn1c(C(=O)NC(Cc2ccsc2)c2cccnc2)cc(=O)n(C)c1=O (stereo unspecified)
(A) 166.4

(Q) Note down Percent Effect recorded for Cc1csc(N2CCN(C(=O)Cc3ccsc3)CC2)n1
(A) 4.933

(Q) Tell me measured Percent Effect for CCCS(=O)(=O)NCc1cccnc1Oc1ccc(C)nc1 please.
(A) -8.382

(Q) Fill in Percent Effect for record Cn1c(=O)cc(C(=O)NC(Cc2ccsc2)c2cccnc2)[nH]c1=O (stereo unspecified)
(A) 175.1
